# EXPERIMENT_NOTES: NCI Yeast Anticancer Drug Screen. Data for the mlh1 rad18 strain (AID 175)
# TEST_CONTEXT: S. cerevisiae mlh1 rad18 strain growth inhibition; at 50.0 µM (retest, dose inferred, filed as 5.0)
About 79,000 compounds went through this panel and 15% of them were active in at least one assay; those are over-represented in the sample as a whole. Active and inactive are the calls of the source. No stated cut-off is given here; in the data, active means growth inhibition above about 70%; inactive means the rest.
Parameter call: string, one of active, inactive

| COMPOUND | LABEL_VALUE |
| --- | --- |
| CN(C)CCOc1ccc2c(c1)C/C(=C/c1ncc([N+](=O)[O-])n1C)C2=O | active |
| O=CC=C(c1ccccc1)c1ccccc1 | active |
| N#CC(C(=O)Nc1ccccc1)C1=C(Cl)C(=O)c2ccccc2C1=O (configuration not stated) | active |
| O=C(O)c1ccccc1NC(=S)c1ccccc1 | active |
| Nc1nc(-c2cccnc2)cc(-c2cc(-c3cccnc3)nc(N)n2)n1 | inactive |

*Q* Dear colleague, could you share the recorded outcome for CCN(CC)CC(O)c1ccc2ccc3ccccc3c2c1 (configuration not stated) when you have a moment?
*A* inactive

*Q* And the next one, O=[N+]([O-])C(=C(Sc1ccccc1)Sc1ccccc1)C(Cl)=C(Cl)Cl ?
*A* active

* * *

List of growth inhibition values.
# EXPERIMENT_NOTES: NCI Yeast Anticancer Drug Screen. Data for the rad50EPP+ strain (AID 151);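 further: 0% = growth of vehicle-treated control cultures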
# TEST_CONTEXT: S. cerevisiae rad50 mutant strain, at 100.0 µM, active compounds read high
About 79,000 compounds went through this panel and 15% of them were active in at least one assay; those are over-represented in the sample as a whole.
Just the number please, in %, no unit attached.

| MOLECULE | VALUE_UNITS | growth inhibition |
| --- | --- | --- |
| Nc1ccccc1CC(O)C(=O)O (configuration not stated) | % | 4 |

*Q* Quick one: growth inhibition for CC(C)/C(Cl)=N\OC(=O)Nc1cccc(Cl)c1 ?
*A* 0

*Q* What do we get for C/C(=N\O)C1CC2C=C(C#N)C1N(Cc1ccccc1)C2 (configuration not stated) ?
*A* 19

*Q* Input CCCCCCCCC/C=C/C=C/C(=O)NCC(=O)NC1C(O)C(O)C(Nc2ncnc3nc[nH]c23)OC1C(O)CO (configuration not stated)
*A* -48

*Q* Item: Cc1ccc(S(=O)(=O)Oc2cc(Cl)c(Cl)cc2Cl)cc1
*A* 66

*Q* Also need C=C(CN(C)C)C(=O)c1cc(C)ccc1C , thanks.
*A* 98

* * *

# EXPERIMENT_NOTES: NCI Yeast Anticancer Drug Screen. Data for the rad14 strain (AID 159);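 further: 0% = growth of vehicle-treated control cultures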
# TEST_CONTEXT: S. cerevisiae rad14 strain growth inhibition; at 3.7 µM
This is part of a sample that, as a whole, favours compounds with a hit. Of some 79,000 tested, about 15% had one in any assay. Calls of active or inactive are those of the source. Rule as the data show it: active = growth inhibition above about 70%; inactive = the rest.
Your response should consist of one outcome taken from active, inactive

For orientation, consider the following solved cases.
| MOLECULE | LABEL_VALUE |
| --- | --- |
| Cc1ccc(Nc2nc3c(=O)n(C)c(=O)n(C)c3nc2Nc2ccc(C)cc2)cc1 | inactive |
| COc1cc2c3c(cccc3c1)C(=O)N(CCN(C)C)C2=O | inactive |
| Cc1ccc2ccc3cccc4ccc1c2c34 | inactive |
| O=C(NCCCCCCCN1CCCCCCC1)C(C1CCCCC1)C1CCCCC1 | active |
| C#CCCCc1ccccc1 | inactive |

*Q* Dear colleague, could you share the recorded outcome for COc1ccc2nc3cccc([N+](=O)[O-])c3c(NCCN(CCO)CCO)c2c1 when you have a moment?
*A* active

*Q* Here is the next molecule: Nc1ncncc1C(C1=C(O)COC1=O)C1=C(O)COC1=O
*A* inactive

*Q* Also, COc1cc(/C=C2\CCc3ccccc3C2=O)cc(OC)c1OC please.
*A* inactive

*Q* Same for CCCN(CCC)CC(O)c1cc(-c2ccc(Cl)cc2)nc2c(C)c(Cl)ccc12 (configuration not stated)
*A* inactive

*Q* Also O=C([O][Sn]([O]C(=O)c1ccccc1)([c]1ccccc1)[c]1ccccc1)c1ccccc1 , if possible.
*A* inactive

*Q* Then CC(C)(Br)C(=O)/C=C/c1ccc(Cl)c(Cl)c1 ?
*A* inactive

*Q* Note, next up: O=[N+]([O-])c1cc(CCl)ccc1CCl
*A* inactive
